Assay: Effect of concentration on the stability of the solution (purity over time)
Conditions: 15 wt %; in water at 25° C.
Measured Purity at hr 0 accompanies every entry in the list below.
State the answer as a number, implicitly in %.

Record excerpt, results attached:
compound: CCN(CC)CCOC(=O)CCc1ccc2cc(OC)ccc2c1.Cl
unitsText: %
Purity at hr 0: 98.5
//
compound: CCN(CC)CCOC(=O)CC1=C(C)C(=Cc2ccc([S+](C)[O-])cc2)c2ccc(F)cc21.Cl (stereo not shown)
unitsText: %
Purity at hr 0: 97.6
//
compound: CCN(CC)CCOC(=O)CCc1nc(-c2ccccc2)c(-c2ccccc2)o1.Cl
unitsText: %
Purity at hr 0: 98.8

Name the reported Purity at hr 0 value associated with the compound CCN(CC)CCOC(=O)Cc1ccc(C(=O)c2ccc(C)cc2)n1C.Cl
98.1

Which measured Purity at hr 0 value corresponds to CCN(CC)CCOC(=O)C(C)c1ccc2oc(-c3ccc(Cl)cc3)nc2c1.Cl (stereo not shown) ?
98.6

For the compound shown here, CCN(CC)CCOC(=O)Cc1c(C)n(C(=O)c2ccc(Cl)cc2)c2ccc(OC)cc12.Cl , give the reported Purity at hr 0.
98.5

Suppose we examine the compound CCN(CC)CCOC(=O)Cc1sc(-c2ccccc2)nc1-c1ccc(Cl)cc1.Cl ; what Purity at hr 0 value has been reported?
99.1

====

Test: Effect of pH value on the stability of the solution (purity)
Format: physicochemical
Conditions: day 14, pH 4.6, 7% in water, 25° C.
# reported Purity(%) from day 0-14; entries follow
Numeric answer plus unit only.

Sample answers from the record:
substanceSmiles: CC(O)C(=O)O.CCN(CC)CCOC(=O)c1ccccc1OC(C)=O
Purity(%) from day 0-14: 94.1 ± 0.2%
--
substanceSmiles: CCCCC(=O)O.CCN(CC)CCOC(=O)c1ccccc1OC(C)=O
Purity(%) from day 0-14: 94.0 ± 0.2%
--
substanceSmiles: CCN(CC)CCOC(=O)c1ccccc1OC(C)=O.O=C(O)/C=C\C(=O)O
Purity(%) from day 0-14: 94.3 ± 0.2%

Query molecule follows.
# get_value(readout='Purity(%) from day 0-14', item= CCN(CC)CCOC(=O)c1ccccc1OC(C)=O.O=C(O)c1ccccc1 )
94.4 ± 0.3%

====

Test: Effect of pH value on the stability of the solution (purity)
Type: physicochemical
Conditions: day 28, pH 1.0, 7% in 25% ethanol, 25° C.
// reported Purity(%) from day 0-28 for each item listed
Answer with a number only, understood to be in %.

compound: CCN(CC)CCOC(=O)C(C)c1ccc(CC(C)C)cc1.Cl (racemic)
Purity(%) from day 0-28: 69.1

compound: CC(C)Cc1ccc([C@@H](C)C(=O)OC[C@@H]2CCCN2)cc1.Cl
Purity(%) from day 0-28: 66.8

Would you kindly share the measured Purity(%) from day 0-28 for CC(C)Cc1ccc([C@@H](C)C(=O)OCCC2CCNCC2)cc1.Cl (racemic) ?
68.4

Field request: Purity(%) from day 0-28 | item: CC(C)Cc1ccc([C@@H](C)C(=O)OCCN(C)C)cc1.Cl (racemic)
65.3

# Purity(%) from day 0-28 lookup, item CC(C)Cc1ccc(C(C)C(=O)OCCN2CCCCC2)cc1.Cl (racemic)
68.1

Can you share its Purity(%) from day 0-28? I mean this compound: CC(C)Cc1ccc([C@@H](C)C(=O)OCCN2CCCC2)cc1.Cl (racemic)
68.3

Field request: Purity(%) from day 0-28 | item: CCCCN(CCCC)CCOC(=O)C(C)c1ccc(CC(C)C)cc1.Cl (racemic)
68.4

====

Test: Effect of temperature (and pH) on the stability of the solution (purity)
Type: physicochemical
Details: 7% solution in water, pH 4.0, day 21, 25° C.
Quick reference: Purity(%) at day 21 (25° C.) of the listed items.
Quick reminder: number only, in %, skip the unit.

compound: CCN(CC)CCOC(=O)CCc1ccc2cc(OC)ccc2c1.Cl
resultNumber: 97.5
--
compound: CCN(CC)CCOC(=O)CC1=C(C)C(=Cc2ccc([S+](C)[O-])cc2)c2ccc(F)cc21.Cl (centres unmarked)
resultNumber: 96.9
--
compound: CCN(CC)CCOC(=O)COC(=O)Cc1c(C)n(C(=O)c2ccc(Cl)cc2)c2ccc(OC)cc12.Cl
resultNumber: 97.4
--
compound: CCN(CC)CCOC(=O)Cc1c(C)n(C(=O)c2ccc(Cl)cc2)c2ccc(OC)cc12.Cl
resultNumber: 97.5
--
compound: CCN(CC)CCOC(=O)C(C)c1ccc2oc(-c3ccc(Cl)cc3)nc2c1.Cl (centres unmarked)
resultNumber: 96.7
--
compound: CCN(CC)CCOC(=O)CCc1nc(-c2ccccc2)c(-c2ccccc2)o1.Cl
resultNumber: 95.1
--
compound: CCN(CC)CCOC(=O)Cc1ccc(C(=O)c2ccc(C)cc2)n1C.Cl
resultNumber: 95.7

Now for the compound whose Purity(%) at day 21 (25° C.) we want.
Which Purity(%) at day 21 (25° C.) reading was recorded for the compound CCN(CC)CCOC(=O)COc1nn(Cc2ccccc2)c2ccccc12.Cl ?
95.7

====

Experiment: Effect of concentration on the stability of the solution (purity over time)
Settings: 20 wt %; in water at 25° C.
Each item that follows carries a reported Purity at Day 14.
Output spec: scalar in %, unitless text.

Solved cases (6 shown):
compound: CCN(CC)CCOC(=O)Cc1c(C)n(C(=O)c2ccc(Cl)cc2)c2ccc(OC)cc12.Cl
resultNumber: 98.2
--
compound: CCN(CC)CCOC(=O)Cc1ccc(C(=O)c2ccc(C)cc2)n1C.Cl
resultNumber: 97.2
--
compound: CCN(CC)CCOC(=O)CCc1ccc2cc(OC)ccc2c1.Cl
resultNumber: 98.2
--
compound: CCN(CC)CCOC(=O)CCc1nc(-c2ccccc2)c(-c2ccccc2)o1.Cl
resultNumber: 98.2
--
compound: CCN(CC)CCOC(=O)CC1=C(C)C(=Cc2ccc([S+](C)[O-])cc2)c2ccc(F)cc21.Cl (stereo not shown)
resultNumber: 97.2
--
compound: CCN(CC)CCOC(=O)C(C)c1ccc2oc(-c3ccc(Cl)cc3)nc2c1.Cl (stereo not shown)
resultNumber: 98.2

Let us move to another entry and its Purity at Day 14.
GET /values?readout=Purity at Day 14&item= CCN(CC)CCOC(=O)Cc1sc(-c2ccccc2)nc1-c1ccc(Cl)cc1.Cl
98.2

====

Test: Effect of concentration on the stability of the solution (purity over time)
Settings: 0.1 wt %; in water at 25° C.
reportedMetric: Purity at hr 0 (%)
Could you give me the number in %? Just the number is fine.

# count of solved cases: 2
compound: CCN(CC)CCOC(=O)C(C)c1ccc2oc(-c3ccc(Cl)cc3)nc2c1.Cl (stereo not shown)
unitsText: %
Purity at hr 0: 97.9
//
compound: CCN(CC)CCOC(=O)CCc1nc(-c2ccccc2)c(-c2ccccc2)o1.Cl
unitsText: %
Purity at hr 0: 97.9

Item CCN(CC)CCOC(=O)CC1=C(C)C(=Cc2ccc([S+](C)[O-])cc2)c2ccc(F)cc21.Cl (stereo not shown) has what recorded Purity at hr 0?
97.2

Which measured Purity at hr 0 value corresponds to CCN(CC)CCOC(=O)Cc1c(C)n(C(=O)c2ccc(Cl)cc2)c2ccc(OC)cc12.Cl ?
98.2

Form field: reported Purity at hr 0 of CCN(CC)CCOC(=O)Cc1ccc(C(=O)c2ccc(C)cc2)n1C.Cl
97.5

Look up Purity at hr 0 for this compound: CCN(CC)CCOC(=O)Cc1sc(-c2ccccc2)nc1-c1ccc(Cl)cc1.Cl
98.5

Find the recorded Purity at hr 0 belonging to CCN(CC)CCOC(=O)CCc1ccc2cc(OC)ccc2c1.Cl and report it.
97.9

====

The compounds listed here are annotated with their Purity at Day 21.
Assay: Effect of concentration on the stability of the solution (purity over time)
Settings: 20 wt %; in water at 25° C.
Please respond with the number in % and leave the unit unwritten.

# annotated cases, reported Purity at Day 21 shown
compound: CCN(CC)CCOC(=O)[C@H](C)c1ccc2cc(OC)ccc2c1.Cl (racemic)
unitsText: %
Purity at Day 21: 97.4

compound: CCN(CC)CCOC(=O)CCc1nc(-c2ccccc2)c(-c2ccccc2)o1.Cl
unitsText: %
Purity at Day 21: 97.8

compound: CCN(CC)CCOC(=O)Cc1ccc(C(=O)c2ccc(C)cc2)n1C.Cl
unitsText: %
Purity at Day 21: 97.1

compound: CCN(CC)CCOC(=O)CC1=C(C)C(=Cc2ccc([S+](C)[O-])cc2)c2ccc(F)cc21.Cl (centres unmarked)
unitsText: %
Purity at Day 21: 97.1

compound: CCN(CC)CCOC(=O)CCc1ccc2cc(OC)ccc2c1.Cl
unitsText: %
Purity at Day 21: 98.1

compound: CCN(CC)CCOC(=O)Cc1c(C)n(C(=O)c2ccc(Cl)cc2)c2ccc(OC)cc12.Cl
unitsText: %
Purity at Day 21: 98.1

Form field: reported Purity at Day 21 of CCN(CC)CCOC(=O)C(C)c1ccc2oc(-c3ccc(Cl)cc3)nc2c1.Cl (centres unmarked)
97.8

Quick check: Purity at Day 21 of CCN(CC)CCOC(=O)Cc1sc(-c2ccccc2)nc1-c1ccc(Cl)cc1.Cl ?
98.1
